In this section, each of the molecules is paired with its reported Percent Disease Control, Test C.
test system: Phytophthora infestans (the causal agent of tomato late blight); assay: whole plant or invertebrate; assay type: in vivo; details: ** tested at l0 ppm
Numeric answer only, unit % assumed.

Cc1cc(C(F)(F)F)nn1CC(=O)N1CCC(c2nc(C3=NOC(n4c(=O)n(C)c5ccccc54)C3)cs2)CC1 (stereo not drawn) [Compound 275]; 98
Cc1cc(C(F)(F)F)nn1CC(=O)N1CCC(c2nc(C3=NOC(c4ccsc4)C3)cs2)CC1 (stereo not drawn) [Compound 148]; 99
Cc1cc(C)n(CC(=O)N2CCC(c3nc(C4=NO[C@]5(CCc6ccccc65)C4)cs3)CC2)n1 [Compound 165]; 99
Cc1cc(C(F)(F)F)nn1CC(=O)N1CCC(c2nc(C3=NC(c4ccccc4)CO3)cs2)CC1 (stereo not drawn) [Compound 31]; 60
C[C@]1(c2ccccc2)CC(c2csc(C3CCN(C(=O)Cn4nc(C(F)(F)F)cc4C(F)(F)F)CC3)n2)=NO1 [Compound 260]; 96

Data request, read-out Percent Disease Control, Test C, for O=C(Cn1nc(Cl)cc1Cl)N1CCC(c2nc(C3=NOC(c4ccccc4)C3)cs2)CC1 (stereo not drawn) [Compound 166]
98

Data request, read-out Percent Disease Control, Test C, for Cc1cc(C(F)(F)F)nn1CC(=O)N1CCC(c2nc(-c3cc(-c4ccccc4)no3)cs2)CC1 [Compound 30]
50

Data request, read-out Percent Disease Control, Test C, for Cc1cc(C(F)(F)F)nn1CC(=O)N1CCC(c2nc(C3=NOC(c4ccccc4)C3)cs2)CC1 (single isomer, unassigned) [Compound 4]
99

Data request, read-out Percent Disease Control, Test C, for Cc1cc(C(F)(F)F)nn1CC(=O)N1CCC(c2nc(C3=NOC(N4C(=O)CCCC4=O)C3)cs2)CC1 (stereo not drawn) [Compound 243]
100

Data request, read-out Percent Disease Control, Test C, for O=C(Cn1nc(C(F)(F)F)cc1C(F)(F)F)N1CCC(c2nc(C3=NO[C@]4(CCc5ccccc54)C3)cs2)CC1 (racemic) [Compound 231]
100

Data request, read-out Percent Disease Control, Test C, for O=C(Cn1nc(C(F)(F)F)cc1Cl)N1CCC(c2nc(C3=NO[C@]4(CCc5ccccc54)C3)cs2)CC1 [Compound 232]
100

Data request, read-out Percent Disease Control, Test C, for Cc1cc(C(F)(F)F)nn1CC(=O)N1CCC(c2nc(C3=NOC(n4c(=O)sc5ccc(Cl)cc54)C3)cs2)CC1 (stereo not drawn) [Compound 280]
98

----------
tested on: Phytophthora infestans (the causal agent of tomato late blight); experiment: whole plant or invertebrate; type: in vivo; details: Phytophthora infestans, 96 h, read-out: Percent Disease Control, Test C
In this section, each of the molecules is paired with its reported pest or weed control at 10 µg/mL.
Hi, when you answer, please include the unit after the number. Thanks!

Cc1cc(C)n(CC(=O)N2CCC(c3nc(C4=NO[C@]5(CCCc6ccccc65)C4)cs3)CC2)n1 (racemic) [Compound 164]; 99%
Cc1cc(C(F)(F)F)nn1CC(=S)N1CCC(c2nc(C3=NOC(c4ccccc4)C3)cs2)CC1 (stereo not shown) [Compound 130]; 99%
Cc1cc(C(F)(F)F)nn1CC(=O)N1CCC(c2nc(C3=NO[C@@](C#N)(c4ccccc4)C3)cs2)CC1 (racemic) [Compound 265]; 98%
C[C@]1(c2ccccc2)CC(c2csc(C3CCN(C(=O)Cn4nc(C(F)(F)F)cc4Cl)CC3)n2)=NO1 (racemic) [Compound 261]; 93%
O=C(Cn1nc(C(F)(F)F)cc1C(F)(F)F)N1CCC(c2nc(C3=NO[C@]4(CCCc5ccccc54)C3)cs2)CC1 (racemic) [Compound 229]; 100%

Data request, read-out pest or weed control at 10 µg/mL, for O=C(Cn1nc(C(F)(F)F)cc1Cl)N1CCC(c2nc(C3=NO[C@]4(CCCc5ccccc54)C3)cs2)CC1 (racemic) [Compound 230]
100%

Data request, read-out pest or weed control at 10 µg/mL, for Cc1cc(C(F)(F)F)nn1CC(=O)N1CCC(c2nc(C3=NO[C@@H](c4ccccc4)C3)cs2)CC1 [Compound 3]
99%

Cited source: patent US9920030B2
